B1: PTPN9 (parent)
chain: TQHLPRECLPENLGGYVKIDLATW

- Variants of: B1
- Assay Overview: protein stability index of a GFP-peptide fusion (GPS, HEK-293T) (PSI 1-6); higher = more stable;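 further: lentivirally expressed fusions sorted by FACS into six bins by GFP to DsRed ratio, PSI derived from sequencing read proportions per bin multiplied by bin number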
- Experimental Context: c terminus: a fixed tail appended
Readout Label: protein stability index
I'd appreciate a reply containing only the number, no unit.

| Residue Change | Assay Result |
| --- | --- |
| Y16M | 2.35 |

Note protein stability index for the variant shown: H3V
1.64

Note protein stability index for the variant shown: Y16S
2.62
